B1: CPOX (parent)
chain: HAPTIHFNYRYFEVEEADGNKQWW

Variants of: B1
Test: protein stability index of a GFP-peptide fusion (GPS, HEK-293T) (PSI 1-6); higher = more stable;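 note: lentivirally expressed fusions sorted by FACS into six bins by GFP to DsRed ratio, PSI derived from sequencing read proportions per bin multiplied by bin number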
Conditions: c terminus: a fixed tail appended
Quick reference for protein stability index among some variants
Just the number, please, no unit attached.

# input Which protein stability index value belongs to `A2P` ?
# output 2.34

# input Which protein stability index value belongs to `A17N` ?
# output 3.19

# input Which protein stability index value belongs to `I5G` ?
# output 2.25

# input Which protein stability index value belongs to `G19K` ?
# output 2.17

# input Which protein stability index value belongs to `E13W` ?
# output 2.31

# input Which protein stability index value belongs to `N8G` ?
# output 2.36

# input Which protein stability index value belongs to `E15T` ?
# output 1.81
